assay: Phase I first-in-human study, pharmacokinetics after single ascending subcutaneous doses in healthy volunteers; format: in vivo; settings: human, plasma; single SC dose 4 mg; nominal time 6 h; mean; read-out: Plasma Concentration AXN-001
Bridge positions count the residues as written; N and C are the ends. Square brackets hold non-standard residues; d marks the D form. Peptide text beside a SMILES is read from it. * marks the point of attachment. Phe(2-CONH2) = NC(=O)c1ccccc1C[C@H](N)C(=O)O; Orn(iPr) = CC(C)NCCC[C@H](N)C(=O)O; Oxazole2carbonyl = O=C(c1ncco1)*; 3Pal = N[C@@H](Cc1cccnc1)C(=O)O
value.kind: level at 6 h (ng/mL)
A number alone suffices; assume ng/mL.

# level at 6 h of CC(C)NCCC[C@@H]1NC(=O)[C@@H](NC(=O)[C@H](Cc2ccccc2C(N)=O)NC(=O)[C@H](NC(=O)c2ncco2)C(C)C)CSSC[C@@H](C(=O)N[C@@H](Cc2cccnc2)C(N)=O)NC(=O)[C@H](Cc2ccccc2)NC(=O)[C@@H]2CCCN2C(=O)CNC(=O)[C@H](C(C)C)NC(=O)[C@H](CC(=O)O)NC1=O [AXN-001] (Oxazole2carbonyl-[dV][Phe(2-CONH2)]C[Orn(iPr)]DVGPFC[3Pal]-NH2; disulfide 3-10) = 8.25

###

assay: Phase I first-in-human study, pharmacokinetics after single ascending subcutaneous doses in healthy volunteers; assay type: in vivo; conditions: human, plasma; single SC dose 4 mg; mean
Bridge positions count the residues as written; N and C are the ends. Square brackets hold non-standard residues; d marks the D form. Peptide text beside a SMILES is read from it. * marks the point of attachment. Phe(2-CONH2) = NC(=O)c1ccccc1C[C@H](N)C(=O)O; Orn(iPr) = CC(C)NCCC[C@H](N)C(=O)O; Oxazole2carbonyl = O=C(c1ncco1)*; 3Pal = N[C@@H](Cc1cccnc1)C(=O)O
value.kind: CL/F (mL/min)
Report the value in mL/min with no unit label.

The recorded CL/F for entry CC(C)NCCC[C@@H]1NC(=O)[C@@H](NC(=O)[C@H](Cc2ccccc2C(N)=O)NC(=O)[C@H](NC(=O)c2ncco2)C(C)C)CSSC[C@@H](C(=O)N[C@@H](Cc2cccnc2)C(N)=O)NC(=O)[C@H](Cc2ccccc2)NC(=O)[C@@H]2CCCN2C(=O)CNC(=O)[C@H](C(C)C)NC(=O)[C@H](CC(=O)O)NC1=O [AXN-001] (Oxazole2carbonyl-[dV][Phe(2-CONH2)]C[Orn(iPr)]DVGPFC[3Pal]-NH2; disulfide 3-10) equals 197

###

test: Phase I first-in-human study, pharmacokinetics after single ascending subcutaneous doses in healthy volunteers; assay type: in vivo; details: human, plasma; single SC dose 2 mg; nominal time 0.50 h; mean; read-out: Plasma Concentration AXN-001
Bridge positions count the residues as written; N and C are the ends. Square brackets hold non-standard residues; d marks the D form. Peptide text beside a SMILES is read from it. * marks the point of attachment. Phe(2-CONH2) = NC(=O)c1ccccc1C[C@H](N)C(=O)O; Orn(iPr) = CC(C)NCCC[C@H](N)C(=O)O; Oxazole2carbonyl = O=C(c1ncco1)*; 3Pal = N[C@@H](Cc1cccnc1)C(=O)O
value.kind: level at 0.5 h

The recorded level at 0.5 h for CC(C)NCCC[C@@H]1NC(=O)[C@@H](NC(=O)[C@H](Cc2ccccc2C(N)=O)NC(=O)[C@H](NC(=O)c2ncco2)C(C)C)CSSC[C@@H](C(=O)N[C@@H](Cc2cccnc2)C(N)=O)NC(=O)[C@H](Cc2ccccc2)NC(=O)[C@@H]2CCCN2C(=O)CNC(=O)[C@H](C(C)C)NC(=O)[C@H](CC(=O)O)NC1=O [AXN-001] (Oxazole2carbonyl-[dV][Phe(2-CONH2)]C[Orn(iPr)]DVGPFC[3Pal]-NH2; disulfide 3-10) is 55.7 ng/mL
